System: phenol oxidizing enzyme from Acremonium murorum
condition.context: ΔE oily tomato stain/ΔE P10, 50 mM Tris buffer solution
Source text: The bleaching detergent composition of the present invention comprise one or more surfactants, a phenol oxidizing enzyme and a compound which acts as enhancer for the phenol oxidizing enzyme, said composition having an Enhancer Index as herein defined of at least 12. The Enhancer Index is defined for the purpose of this invention as the ratio of the bleach effect on tomato stains to the colored monitor P10 (ΔEtomato stain/ΔEP10 colored monitor) , and is further illustrated in the Examples. […]
List of Ratio Bleach on Stain Monitor/Dye Damage, Oily Tomato Stain values.
Respond numerically, and do not add a unit to the figure.

stdin: Determine its reported Ratio Bleach on Stain Monitor/Dye Damage, Oily Tomato Stain: O=S(=O)(Nc1cc(Br)c(O)c(Br)c1Br)c1ccccc1
stdout: 5.62

stdin: Determine its reported Ratio Bleach on Stain Monitor/Dye Damage, Oily Tomato Stain: CCn1c(=NN=c2sc3cc(S(=O)(=O)O)ccc3n2CC)sc2cc(S(=O)(=O)O)ccc21
stdout: 2.66

stdin: Determine its reported Ratio Bleach on Stain Monitor/Dye Damage, Oily Tomato Stain: Cc1ccc(S(=O)(=O)Nc2cc(Br)c(O)c(Br)c2Br)cc1
stdout: 6.46

Please find the next compound below.
stdin: Determine its reported Ratio Bleach on Stain Monitor/Dye Damage, Oily Tomato Stain: O=C(O)CCN1c2ccccc2Sc2ccccc21 [PTP, Phenothiazine-10-propionate]
stdout: 0.69
